Tested on: PC-3 [JPC-3]
Measurement notes: relative viability (nuclei count vs DMSO), 5 days (fraction); higher = more cells survive
Setup conditions: first compound 1.265 µM
Value kind: relative viability
Give only the figure.

Worked cases, answers included:
{"columns": ["Compound", "relative viability"],
 "data": [
  ["Cc1sc2c(c1C)C(c1ccc(Cl)cc1)=N[C@@H](CC(=O)OC(C)(C)C)c1nnc(C)n1-2 [JQ1] + O=C(CCCCCCC(=O)Nc1ccccc1)NO [Vorinostat] (partner 1 µM)", 0.537],
  ["Cc1sc2c(c1C)C(c1ccc(Cl)cc1)=N[C@@H](CC(=O)OC(C)(C)C)c1nnc(C)n1-2 [JQ1] + CCNC(=O)c1noc(-c2cc(C(C)C)c(O)cc2O)c1-c1ccc(CN2CCOCC2)cc1 [Luminespib] (partner 0.01 µM)", 0.443]
]}

GET /values?readout=relative viability&item= Cc1sc2c(c1C)C(c1ccc(Cl)cc1)=N[C@@H](CC(=O)OC(C)(C)C)c1nnc(C)n1-2 [JQ1] + CC(=O)c1c(C)c2cnc(Nc3ccc(N4CCNCC4)cn3)nc2n(C2CCCC2)c1=O [Palbociclib] (partner 0.5 µM) 0.575

Return reported relative viability; argument: Cc1sc2c(c1C)C(c1ccc(Cl)cc1)=N[C@@H](CC(=O)OC(C)(C)C)c1nnc(C)n1-2 [JQ1] + Cc1nc(Nc2ncc(C(=O)Nc3c(C)cccc3Cl)s2)cc(N2CCN(CCO)CC2)n1 [Dasatinib] (partner 0.075 µM) 0.96

====

Tested on: HCC-827
Measurement notes: relative viability (nuclei count vs DMSO), 5 days (fraction); higher = more cells survive
Setup conditions: first compound 158.11 µM
Value kind: relative viability
Field format: numeric only.

{"columns": ["Compound", "relative viability"],
 "data": [
  ["O=C(O)CCCCC(CCSCc1ccccc1)SCc1ccccc1 (stereo not drawn) [CPI-613] + CC(C)C[C@H](NC(=O)[C@H](Cc1ccccc1)NC(=O)c1cnccn1)B(O)O [Bortezomib] (partner 0.002 µM)", 0.916],
  ["O=C(O)CCCCC(CCSCc1ccccc1)SCc1ccccc1 (stereo not drawn) [CPI-613] + Cc1cc(Nc2cc(N3CCN(C)CC3)nc(Sc3ccc(NC(=O)C4CC4)cc3)n2)n[nH]1 [Tozasertib] (partner 0.1 µM)", 0.375]
]}

Turning to the following compound.
Give its relative viability value. Item: O=C(O)CCCCC(CCSCc1ccccc1)SCc1ccccc1 (stereo not drawn) [CPI-613] + COc1cccc2cc(-c3nc([C@H]4CC[C@H](C(=O)O)CC4)n4ncnc(N)c34)[nH]c12 [OSI-027] (partner 0.5 µM) 0.431

====

# relative viability per entry
Test system: NCI-H661
Measurement notes: relative viability (nuclei count vs DMSO), 5 days (fraction); higher = more cells survive
Setup conditions: first compound 0.1265 µM

Example molecules with recorded relative viability:
{"columns": ["Molecule", "Target or test system", "Result"],
 "data": [
  ["Cc1sc2c(c1C)C(c1ccc(Cl)cc1)=N[C@@H](CC(=O)OC(C)(C)C)c1nnc(C)n1-2 [JQ1] + CC(=O)c1c(C)c2cnc(Nc3ccc(N4CCNCC4)cn3)nc2n(C2CCCC2)c1=O [Palbociclib] (partner 0.5 µM)", "NCI-H661", 0.369],
  ["Cc1sc2c(c1C)C(c1ccc(Cl)cc1)=N[C@@H](CC(=O)OC(C)(C)C)c1nnc(C)n1-2 [JQ1] + CS(=O)(=O)CCNCc1ccc(-c2ccc3ncnc(Nc4ccc(OCc5cccc(F)c5)c(Cl)c4)c3c2)o1 [Lapatinib] (partner 2 µM)", "NCI-H661", 0.527]
]}

# get_value(readout='relative viability', item= Cc1sc2c(c1C)C(c1ccc(Cl)cc1)=N[C@@H](CC(=O)OC(C)(C)C)c1nnc(C)n1-2 [JQ1] + O=C(c1cc(Cc2n[nH]c(=O)c3ccccc23)ccc1F)N1CCN(C(=O)C2CC2)CC1 [Olaparib] (partner 8 µM) ) 0.709

// returns reported relative viability for input Cc1sc2c(c1C)C(c1ccc(Cl)cc1)=N[C@@H](CC(=O)OC(C)(C)C)c1nnc(C)n1-2 [JQ1] + CCNC(=O)c1noc(-c2cc(C(C)C)c(O)cc2O)c1-c1ccc(CN2CCOCC2)cc1 [Luminespib] (partner 0.01 µM) 0.968

====

Collected relative viability values appear next to each entry.
Tested on: LOU-NH91
Measurement notes: relative viability (nuclei count vs DMSO), 5 days (fraction); higher = more cells survive
Setup conditions: first compound 50 µM
Enter the number alone.

{"columns": ["Compound", "Target or test system", "Quantitative readout"],
 "data": [
  ["O=C(O)CCCCC(CCSCc1ccccc1)SCc1ccccc1 (centres undefined) [CPI-613] + N=C(N)NC(=N)NCCc1ccccc1 [Phenformin] (partner 250 µM)", "LOU-NH91", 0.652],
  ["O=C(O)CCCCC(CCSCc1ccccc1)SCc1ccccc1 (centres undefined) [CPI-613] + Nc1nc2[nH]cc(CCc3ccc(C(=O)N[C@@H](CCC(=O)O)C(=O)O)cc3)c2c(=O)[nH]1 [Pemetrexed] (partner 0.2 µM)", "LOU-NH91", 0.367],
  ["O=C(O)CCCCC(CCSCc1ccccc1)SCc1ccccc1 (centres undefined) [CPI-613] + COc1cccc2cc(-c3nc([C@H]4CC[C@H](C(=O)O)CC4)n4ncnc(N)c34)[nH]c12 [OSI-027] (partner 0.5 µM)", "LOU-NH91", 0.703]
]}

Please give the measured relative viability for this compound: O=C(O)CCCCC(CCSCc1ccccc1)SCc1ccccc1 (centres undefined) [CPI-613] + CC1(C)CCC(c2ccc(Cl)cc2)=C(CN2CCN(c3ccc(C(=O)NS(=O)(=O)c4ccc(N[C@H](CCN5CCOCC5)CSc5ccccc5)c(S(=O)(=O)C(F)(F)F)c4)cc3)CC2)C1 [Navitoclax] (partner 0.5 µM) 0.664

====

Entries and their relative viability values follow.
System: NCI-H1734
Measurement notes: relative viability (nuclei count vs DMSO), 5 days (fraction); higher = more cells survive
Setup conditions: first compound 0.002 µM
Reply with just the number.

Solved cases (2 shown):
{"columns": ["Compound", "Quantitative readout"],
 "data": [
  ["CC(=O)O[C@@]12CO[C@@H]1C[C@H](O)[C@@]1(C)C(=O)[C@H](O)C3=C(C)[C@@H](OC(=O)[C@H](O)[C@@H](NC(=O)OC(C)(C)C)c4ccccc4)C[C@@](O)([C@@H](OC(=O)c4ccccc4)[C@H]21)C3(C)C [Docetaxel] + Cc1nc(Nc2ncc(C(=O)Nc3c(C)cccc3Cl)s2)cc(N2CCN(CCO)CC2)n1 [Dasatinib] (partner 0.075 µM)", 0.234],
  ["CC(=O)O[C@@]12CO[C@@H]1C[C@H](O)[C@@]1(C)C(=O)[C@H](O)C3=C(C)[C@@H](OC(=O)[C@H](O)[C@@H](NC(=O)OC(C)(C)C)c4ccccc4)C[C@@](O)([C@@H](OC(=O)c4ccccc4)[C@H]21)C3(C)C [Docetaxel] + CC(=O)c1c(C)c2cnc(Nc3ccc(N4CCNCC4)cn3)nc2n(C2CCCC2)c1=O [Palbociclib] (partner 0.5 µM)", 0.281]
]}

# input for lookup
Enter reported relative viability observed with NCI-H1734 for CC(=O)O[C@@]12CO[C@@H]1C[C@H](O)[C@@]1(C)C(=O)[C@H](O)C3=C(C)[C@@H](OC(=O)[C@H](O)[C@@H](NC(=O)OC(C)(C)C)c4ccccc4)C[C@@](O)([C@@H](OC(=O)c4ccccc4)[C@H]21)C3(C)C [Docetaxel] + COc1cc2c(Oc3ccc(NC(=O)C4(C(=O)Nc5ccc(F)cc5)CC4)cc3F)ccnc2cc1OCCCN1CCOCC1 [Foretinib] (partner 0.25 µM) 0.404

====

Test system: NCI-H460
Measurement notes: relative viability (nuclei count vs DMSO), 5 days (fraction); higher = more cells survive
Setup conditions: first compound 0.04 µM
relative viability values, listed per item
I only need the number, thanks.

The examples below pair each entry with its known result.
{"columns": ["Molecule", "Value kind", "Quantitative readout"],
 "data": [
  ["Cc1sc2c(c1C)C(c1ccc(Cl)cc1)=N[C@@H](CC(=O)OC(C)(C)C)c1nnc(C)n1-2 [JQ1] + CC(C)C[C@H](NC(=O)[C@H](Cc1ccccc1)NC(=O)c1cnccn1)B(O)O [Bortezomib] (partner 0.002 µM)", "relative viability", 1.05],
  ["Cc1sc2c(c1C)C(c1ccc(Cl)cc1)=N[C@@H](CC(=O)OC(C)(C)C)c1nnc(C)n1-2 [JQ1] + CCNC(=O)c1noc(-c2cc(C(C)C)c(O)cc2O)c1-c1ccc(CN2CCOCC2)cc1 [Luminespib] (partner 0.01 µM)", "relative viability", 0.031]
]}

Look up relative viability: Cc1sc2c(c1C)C(c1ccc(Cl)cc1)=N[C@@H](CC(=O)OC(C)(C)C)c1nnc(C)n1-2 [JQ1] + CC1(C)CCC(c2ccc(Cl)cc2)=C(CN2CCN(c3ccc(C(=O)NS(=O)(=O)c4ccc(N[C@H](CCN5CCOCC5)CSc5ccccc5)c(S(=O)(=O)C(F)(F)F)c4)cc3)CC2)C1 [Navitoclax] (partner 0.5 µM) 1.02

// lookup relative viability for Cc1sc2c(c1C)C(c1ccc(Cl)cc1)=N[C@@H](CC(=O)OC(C)(C)C)c1nnc(C)n1-2 [JQ1] + N=C(N)NC(=N)NCCc1ccccc1 [Phenformin] (partner 250 µM) 0.503
